Catalogue of sequences with associated folding stability dG unfold
Experiment: folding stability dG unfold from chymotrypsin proteolysis; higher = more stable
measurement.type: folding stability dG unfold (kcal/mol)

SAGGMEIVSSGSLEEAIALLKENPNTTITVTLPDGTTVVIKVTQNGEGPYIYDVSTEPPAAAPSPSLVSAGG [r13_56_JUSTAS] ... 1.1
SAGGGMNISVDPNQSVTIPVTRIENGVPVETTVTISLPAGSTISPEGDNIIINYPHTGQTITLPTTLISAGG [r13_275_JUSTAS] ... -0.174
SAGGSAGGSSPDWSVKKSTVTVTITFPEEKYFEPETKKEVAKRPVITIEIEIEVVETLPASLISAGGSAGGS [r12_600_JUSTAS] ... 1.44
SAGGSRTVLLYDPDNPRPYIVEYDPATGTLRIYDPETGELVAEFPIPDLKDIEAPVVPNGILLGAIVDSAGG [r13_720_TrMRF] ... 2
SAGGSAGGSKPEIRKIKIYTKEGGKKIIPVNGTVIEIDGKKYKVKPNDKIKVPKNVKKIEPEGSAGGSAGGS [r12_779_TrMRF] ... 0.153
SAPIDIDLERDPEPGRLKATVEFPWPNGWMHRMTFDLQWPRIKVEHYPFKDGEPEPQEIEIPIPANAKVSAG [r14_64_TrROS] ... 0.426
SAGGSAGGSAGPNNMYPYEITIEVRDDGKPVKIKIEMYMSPNGEPMPPEQIKNFAKELAKSAGGSAGGSAGG [r17_373_TrROS] ... 0.444

All figures here come from the supplement of paper PMC12764529.
